This collection of values is drawn from patent US20160002318A1.

- assayed-target: HA of influenza B virus B/Brisbane/60/2008 (live virus) (influenza B virus B/Brisbane/60/2008)
- assay-info: cell-based or functional assay
measurement-name: VNA titers (µg/mL)

[
  {
    "binder": "CR10023 (antibody, V domains shown) VH: EVQLVETGGGLVQPGRSLRLSCAASGFTFDDYAMHWVRQAPGKGLEWVSGINWVSTTMGYADSVKGRFTISRDNAKNSLYLQMNSLRAEDTALYYCAKDRLESAAIDILEGGTFDIRGQGTMVTVSS VL: QSALTQPPSASGSPGQSVTISCTGTSSDVGGYNYVSWYQQHPGKAPKLMIYDVSKRPSGVPDRFSGSKSGNTASLTISGLQAEDEAEYYCSSYASGSTYVFGTGTKVTVL",
    "measurement-name": "VNA titers",
    "comparison-symbol": "=",
    "recorded-measurement": 7.07
  },
  {
    "binder": "CR8033 (antibody, V domains shown) VH: EVQLVETGGGLVQPGRSLRLSCAASGFSFDEYTMHWVRQAPGKGLEWVAGINWKGNFMGYADSVQGRFTISRDNGKNSLYLQMNSLRAEDTALYYCAKDRLESSAMDILEGGTFDIWGQGTMVT VL: EIVLTQSPGTLSLSPGERATLSCRASQSVSSSYLAWYQQKPGQAPRLLIYGASTRATGIPARFSGSGSGTDFTLTISRLEPEDLAVYYCQQYGSSPWTFGQGTKVEIK",
    "measurement-name": "VNA titers",
    "comparison-symbol": "=",
    "recorded-measurement": 5.95
  },
  {
    "binder": "CR11039 (antibody, V domains shown) VH: EVQLVQSGAEVKKPGESVKISCKTSGYAFTGYGISWVRQAPGQGLEWMGWINTYKFNTNYAQNLQGRVTMTIDTSTSAAYMELRSLRYEDTAVYFCARDWAGPFGNAFDVWGQGTMVTVSS VL: IQMTQSPSSLSASIGDRVAITCQASQDISDYLNWYQQQPGKAPKLLLYGASNLETGVPSRFSGSGSGTDFTFTISSLQPEDIATYYCQQYGNLPPTFGGGTKLEIK",
    "measurement-name": "VNA titers",
    "comparison-symbol": "<",
    "recorded-measurement": 0.14
  }
]
